Every entry's value here was drawn from patent US20240150300A1.

test system: NU-DHL-1; assay: Antiproliferative activity, CCK-8, NU-DHL-1; format: cell-based; conditions: NU-DHL-1, Diffuse large B-cell lymphoma; read-out: Cytotoxicity (IC50 μM)

[
  {
    "smiles_record": "C[C@@H](c1ccc(C(=O)Nc2ccc(F)cc2N)cc1)n1nc(-c2ccc(CN(C)C)cc2)ccc1=O",
    "IC50": "0.243 µM"
  }
]

----------
system: CMK; assay: Antiproliferative activity, CCK-8, CMK; assay type: cell-based; details: Down syndrome acute megakaryocyte leukemia, read-out: Cytotoxicity (IC50 μM)

[
  {
    "smiles_record": "C[C@@H](c1ccc(C(=O)Nc2ccc(F)cc2N)cc1)n1nc(-c2ccc(CN(C)C)cc2)ccc1=O",
    "IC50 (µM)": 0.131
  }
]
